# ASSAY NOTES: Neutral red uptake (NRU) assay, normal cells
# CONDITION CONTEXT: human

SMILES DATA	IC50 at 24 h
COc1cc(-c2cc(=O)c3c(O)cc(O)cc3o2)cc(OC)c1O	> 200 µM
O=c1c(-c2ccc(O)cc2)coc2cc(O)cc(O)c12	> 200 µM
COc1cc(-c2oc3cc(O)cc(O)c3c(=O)c2O)ccc1O	> 200 µM

###

# ASSAY NOTES: in vitro
# CONDITION CONTEXT: human

MOLECULE	IC50 at 48 h
COc1ccc(-c2oc3c(CC=C(C)C)c(O[C@@H]4O[C@H](CO)[C@@H](O)[C@H](O)[C@H]4O)cc(O)c3c(=O)c2O[C@@H]2O[C@@H](C)[C@H](O)[C@@H](O)[C@H]2O)cc1 [Compound 23, icariin]	> 200 µM
O=c1cc(-c2ccc(O)cc2)oc2cc(O)cc(O)c12 [Compound 1, apigenin]	> 200 µM
O=c1cc(-c2ccc(O)c(O)c2)oc2cc(OC3OC(CO)C(O)C(O)C3O)cc(O)c12 (stereo not drawn) [Compound 7, luteolin 7-O-glucoside]	> 200 µM

###

# ASSAY NOTES: Neutral red uptake (NRU) assay, normal cells
# CONDITION CONTEXT: human, human skin fibroblasts (CCD25Sk)

COMPOUND	IC50 at 24 h
COc1cc(O)c2c(=O)c(O)c(-c3ccc(O)c(O)c3)oc2c1 [Compound 25, 7-methoxyquercetin]	> 200 µM
O=c1cc(-c2ccccc2)oc2c(O)c(O)ccc12 [Compound 16, 7,8-dihydroxyflavone]	> 200 µM
O=c1c(O)c(-c2ccc(O)cc2)oc2cc(O)cc(O)c12 [Compound 18, kaempferol]	> 200 µM
O=c1c(O)c(-c2cc(O)c(O)c(O)c2)oc2cc(O)ccc12 [Compound 32, robinetin]	> 200 µM
O=c1cc(-c2ccc(O)cc2)oc2cc(OC3OC(CO)C(O)C(O)C3O)cc(O)c12 (centres unmarked) [Compound 3, apigenin 7-O-glucoside]	> 200 µM
C[C@@H]1O[C@@H](OC[C@H]2O[C@@H](Oc3c(-c4ccc(O)c(O)c4)oc4cc(O)cc(O)c4c3=O)[C@H](O)[C@@H](O)[C@@H]2O)[C@H](O)[C@H](O)[C@H]1O [Compound 28, quercetin 3-O-rutinoside]	> 200 µM
O=c1cc(-c2ccc(O)c(O)c2)oc2cc(O)cc(O)c12 [Compound 6, luteolin]	> 200 µM
O=c1c(O)c(-c2ccc(O)c(O)c2)oc2cc(O)cc(O)c12 [Compound 24, quercetin]	> 200 µM
O=c1cc(-c2ccc(O)c(O)c2)oc2cc(OC3OC(CO)C(O)C(O)C3O)cc(O)c12 (centres unmarked) [Compound 7, luteolin 7-O-glucoside]	> 200 µM
O=c1c(-c2ccc(O)cc2)coc2cc(O)ccc12 [Compound 36, daidzein]	> 200 µM
COc1ccc(C2CC(=O)c3c(O)cc(OC4OC(CO)C(O)C(O)C4OC4OC(C)C(O)C(O)C4O)cc3O2)cc1O (centres unmarked) [Compound 35, hesperetin 7-O-neohesperidoside]	> 200 µM
O=C(O)C1OC(Oc2c(-c3ccc(O)c(O)c3)oc3cc(O)cc(O)c3c2=O)C(O)C(O)C1O (centres unmarked) [Compound 27, quercetin 3-O-glucuronide]	> 200 µM
O=c1c(O)c(-c2cc(O)c(O)c(O)c2)oc2cc(O)cc(O)c12 [Compound 30, myricetin]	> 200 µM
COc1ccc([C@@H]2CC(=O)c3c(O)cc(O)cc3O2)cc1O [Compound 33, hesperetin]	> 200 µM
